Hey, just so you know, these numbers are from the RNAGym collection of RNA variant scans (doi:10.7554/elife.80360).

# self-cleavage per entry
B1: CPEB3 Ribozyme (parent)
chain: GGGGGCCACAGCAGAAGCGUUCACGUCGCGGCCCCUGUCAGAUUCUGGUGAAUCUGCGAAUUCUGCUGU

variants of: B1; test: self-cleavage, relative activity (ratio to wild type); higher = more cleavage; co-transcriptional
API note: the answer field is a bare number with no unit suffix.

These recorded examples may help you get a feel for the data.
sequence-change	self-cleavage
U38G A40C	0.17
A23C U44A	0.936
G31U U62A	0.27
G25C U26C	0.319
G17A C34G	0.197
G2A G28C	0.0268

INPUT: So what does the record say about self-cleavage for A10G U53C ?
OUTPUT: 0.333

INPUT: Try A23G U61G next.
OUTPUT: 0.734

INPUT: Try C22A G30A next.
OUTPUT: 0.167
